System: HCT-15
Assay: Antiproliferative activity against human HCT-15 cells assessed as reduction in cell viability incubated for 48 hrs by CytoX cell viability assay
Assay type: functional, cell-based
Settings: HCT-15, 48 h
Property: pIC50
# pIC50: negative log10 of molar concentration; output just the value

Cc1cc(=O)c2c(OCC3CO3)cc(OCC3CO3)cc2o1 (centres undefined) = 4.92
Cc1cc(=O)c2c(O)cc(OCC3CO3)cc2o1 (centres undefined) = 4.74
CC[C@@]1(O)C(=O)OCc2c1cc1n(c2=O)Cc2cc3ccccc3nc2-1 [CAMPTOTHECIN] = 5.80
Cc1cc(=O)c2c(OC[C@@H]3CO3)cc(OC[C@H]3CO3)cc2o1 = 4.92
Cc1cc(=O)c2c(OC[C@H]3CO3)cc(OC[C@@H]3CO3)cc2o1 = 5.02

Find the measured pIC50 of Cc1cc(=O)c2c(O)cc(OC[C@@H]3CO3)cc2o1 and report it. 4.76

// Input: Cc1cc(=O)c2c(O)cc(OC[C@H]3CO3)cc2o1 . Output its pIC50 only. 4.57

Tell me pIC50 reported for Cc1cc(=O)c2c(OC[C@H]3CO3)cc(OC[C@H]3CO3)cc2o1 3.64

State its pIC50: Cc1cc(=O)c2c(OC[C@@H]3CO3)cc(OC[C@@H]3CO3)cc2o1 4.40

====

The following molecules are shown together with reported pIC50 values.
System: MCF7
Assay: Cytotoxicity against human MCF7 cells assessed as inhibition of cell growth incubated for 48 hrs by SRB assay
Assay type: functional, cell-based
Details: MCF7, 48 h
pIC50: −log10 of the molar value.

C[C@]12CC[C@H]3[C@@H](C=CC4=CC(=O)[C@@H]5O[C@@H]5[C@@]43C)[C@@H]1CC(=O)OC2 = < 4.00

The record that follows has no pIC50 shown yet.
Fill in pIC50 for record C[C@]12CC[C@H]3[C@@H]([C@@H]4O[C@@H]4C4=CC(=O)C=C[C@@]43C)[C@@H]1CC(=O)OC2 < 4.00

====

System: MIA PaCa-2
Assay: Cytotoxicity against human MIA PaCa-2 cells assessed as inhibition of cell proliferation incubated for 72 hrs by MTT assay
Format: functional, cell-based
Conditions: mia paca-2
Property: pIC50
The read-out pIC50 is expressed as -log10 of concentration in moles per litre.

Output measured pIC50 for this item: CC(C)=CCCC1(C)OC1C=O (stereo in doubt; 10a) 4.05

====

Test: Cytotoxicity against human BEAS-2B assessed as reduction in cell viability incubated for 72 hrs by MTT assay
Format: toxicity, cell-based
Conditions: BEAS-2B cells
Property: IC50 at 72 h (µM)
Express the result in µM but write the number alone.

Report IC50 at 72 h, nothing else, for this compound: CC(=O)O[C@H]1[C@H]2O[C@]23[C@@H]2CC[C@@H]4C[C@@H](O)CC[C@]4(C)[C@H]2CC[C@]3(C)[C@H]1c1ccc(=O)oc1 22.3

====

Test system: HL-60
Assay: Antiproliferative activity against human HL-60 cells assessed as inhibition of cell growth incubated for 72 hrs by MTT assay
Type: functional, cell-based
Settings: HL-60, 72 h
Property: IC50 (µg/mL)
Kindly answer with a numeric value in µg/mL, unit omitted.

Supply IC50 value. Item: C[C@]1([C@H]2CC=C(C=O)CC2)CO1 1.03
